Biological target: KRAS WT (Homo sapiens (Human), UniProt P01116+P62937)
Sequence (P01116-2 other isoform, or with tags, fused parts or gaps): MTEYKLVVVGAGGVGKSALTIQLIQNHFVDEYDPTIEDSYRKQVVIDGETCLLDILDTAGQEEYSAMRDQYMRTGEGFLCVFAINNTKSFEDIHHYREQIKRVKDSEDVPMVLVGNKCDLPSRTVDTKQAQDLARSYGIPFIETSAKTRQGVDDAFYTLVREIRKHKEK
Sequence (P62937 whole entry): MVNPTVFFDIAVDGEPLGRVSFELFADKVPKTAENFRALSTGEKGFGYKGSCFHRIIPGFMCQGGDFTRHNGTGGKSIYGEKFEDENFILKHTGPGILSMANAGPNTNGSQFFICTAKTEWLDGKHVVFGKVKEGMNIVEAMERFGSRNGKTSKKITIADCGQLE
Assay: Ras-Raf (BRAF RBD) disruption / FRET / MOA assay, KRAS WT
Type: biochemical
Details: read-out: IC50* KRAS WT FRET data
pIC50: −log10 of the molar value.
The entries below are paired with their reported pIC50.
property name: pIC50

>>> reading("C=CC(=O)N1CCOC2(CCN(C(=O)N(C)[C@H](C(=O)N[C@H]3Cc4cccc(c4)-c4ccc5c(c4)c(c(-c4cccnc4[C@H](C)OC)n5CC(F)(F)F)CC(C)(C)COC(=O)[C@@H]4CCCN(N4)C3=O)C(C)C)CC2)C1 (atropisomer, axis not shown) [Example A608]")
"6.00 to 7.00"
>>> reading("C=CC(=O)N1CC2(C1)OCCCN2C(=O)N(C)[C@H](C(=O)N[C@H]1Cc2nc(cs2)-c2ccc3c(c2)c(c(-c2cccnc2[C@H](C)OC)n3CC)CC(C)(C)COC(=O)[C@@H]2CCCN(N2)C1=O)C(C)C (atropisomer, axis not shown) [Example A735]")
"5.00 to 6.00"
>>> reading("CCn1c(-c2cccnc2[C@H](C)OC)c2c3cc(ccc31)-c1nc(cs1)C[C@H](NC(=O)[C@H](C(C)C)N(C)C(=O)[C@H]1CCN(C(=O)C#CC(C)(C)N3CCC3)C1)C(=O)N1CCC[C@H](N1)C(=O)OCC(C)(C)C2 (atropisomer, axis not shown) [Example A440]")
"5.00 to 6.00"
>>> reading("CCn1c(-c2cncnc2)c2c3cc(ccc31)-c1cc(O)cc(c1)C[C@H](NC(=O)[C@H](C(C)C)N(C)C(=O)[C@H]1CCN(C(=O)C#CCN3CCOCC3)C1)C(=O)N1CCC[C@H](N1)C(=O)OCC(C)(C)C2 [Example A176]")
"< 5.00"

###

# IC50 listing for each entry below
Molecular target: KRAS G12V (Homo sapiens (Human), UniProt P01116+P62937, G12V)
Sequence (P01116-2 other isoform, or with tags, fused parts or gaps G12V): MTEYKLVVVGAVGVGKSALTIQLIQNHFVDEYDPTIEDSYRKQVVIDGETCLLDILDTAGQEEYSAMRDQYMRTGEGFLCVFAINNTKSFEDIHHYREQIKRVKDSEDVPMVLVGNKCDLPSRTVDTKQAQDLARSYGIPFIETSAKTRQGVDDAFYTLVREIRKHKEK
Sequence (P62937 whole entry): as the sequence (P62937 whole entry) above
Assay: Ras-Raf (BRAF RBD) disruption / FRET / MOA assay, KRAS G12V
Type: biochemical
Settings: read-out: IC50* KRAS G12V FRET data
property name: IC50

>>> reading("CCn1c(-c2cccnc2[C@H](C)OC)c2c3cc(ccc31)-c1csc(n1)C[C@H](NC(=O)[C@H](F)COC1CN(C(=O)C#CC(C)(C)N(C)C)C1)C(=O)N1CCC[C@H](N1)C(=O)OCC(C)(C)C2 (atropisomer, axis not shown) [Example A627]")
"> 10 µM"
>>> reading("CCn1c(-c2cccnc2[C@H](C)OC)c2c3cc(ccc31)-c1cccc(c1)C[C@H](NC(=O)[C@H](C(C)C)N(C)C(=O)[C@H]1CCN(C(=O)C#CC(C)(C)N3CCCC3)C1)C(=O)N1CCC[C@H](N1)C(=O)OCC(C)(C)C2 (atropisomer, axis not shown) [Example A326]")
"1 to 10 µM"
>>> reading("C=CC(=O)N1CC2(CCN2C(=O)N(C)[C@H](C(=O)N[C@H]2Cc3cccc(n3)-c3ccc4c(c3)c(c(-c3cccnc3[C@H](C)OC)n4CC)CC(C)(C)COC(=O)[C@@H]3CCCN(N3)C2=O)C(C)C)C1 (atropisomer, axis not shown) [Example A636]")
"1 to 10 µM"
>>> reading("C=CC(=O)N1CC[C@@]2(CCN([C@H](C(=O)N[C@H]3Cc4cccc(c4)-c4ccc5c(c4)c(c(-c4cccnc4[C@H](C)OC)n5CC)CC(C)(C)COC(=O)[C@@H]4CCCN(N4)C3=O)C(C)C)C2=O)C1 (atropisomer, axis not shown) [Example A471]")
"> 10 µM"
